# TARGET_OR_SYSTEM: Cynomolgus monkey CTGF-Fc (cynomolgus monkey)
# Sequence (P29279 other isoform, or with tags, fused parts or gaps limits assumed): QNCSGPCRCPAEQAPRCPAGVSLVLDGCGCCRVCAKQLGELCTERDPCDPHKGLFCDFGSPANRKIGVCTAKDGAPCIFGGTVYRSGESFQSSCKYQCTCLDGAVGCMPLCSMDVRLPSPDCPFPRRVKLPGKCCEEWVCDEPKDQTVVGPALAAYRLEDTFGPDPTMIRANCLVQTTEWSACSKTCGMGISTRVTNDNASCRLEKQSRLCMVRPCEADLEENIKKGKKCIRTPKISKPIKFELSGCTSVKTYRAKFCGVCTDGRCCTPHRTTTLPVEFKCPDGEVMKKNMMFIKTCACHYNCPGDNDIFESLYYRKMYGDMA
# TEST_DETAILS: ELISA, cyno-CTGF-mFc captured by anti-mFc
Measured pEC50, listed per entry for reference.
// returns pEC50 (minus log10 of molar concentration), number only

1) Hu95-51yk (antibody, human IgG1, kappa, V domains shown) VH: EVQLVQSGAEVKKPGASVKVSCRASGFTFTNYAIHWVKQAPGQRLEWMGLVYPYTGGTAYNQKFKDKVTLTFDTSASTAYMELSSLRSEDTAVYYCARWGMIPGTNSYFDVWGQGTTVTVSS VL: EIVLTQSPATLSLSPGERATLSCRASSSVSYIHWYQQKPGQAPRPWIYATSNLASGIPARFSGSGSGTDYTLTISRLEPEDFAVYYCQQWNSNPWTFGGGTKVEIKR | 10.23

Looking for the measured pEC50 of Hu147-31wk (antibody, human IgG1, kappa, V domains shown) VH: EVQLVESGGGLVQPGGSLRLSCAASGFSFNTYAMNWVRQAPGKGLEWVARIRTKSNNYATYYADSVKDRFTISRDDSESSLYLQMNSLKTEDTAVYYCVETGFAYWDQGTLVTVSS VL: EIVLTQSPATLSLSPGERATLSCSASSSVSYMHWFQQKPGQSPRLLIYSTSNLASGIPARFSGSGSGTDYTLTISSLEPEDFAVYYCQQRSSYPLTFGQGTKLEIKR , can you help?
10.15
